# systemUnderTest: CETP (Homo sapiens)
# Sequence (P11597 18-493): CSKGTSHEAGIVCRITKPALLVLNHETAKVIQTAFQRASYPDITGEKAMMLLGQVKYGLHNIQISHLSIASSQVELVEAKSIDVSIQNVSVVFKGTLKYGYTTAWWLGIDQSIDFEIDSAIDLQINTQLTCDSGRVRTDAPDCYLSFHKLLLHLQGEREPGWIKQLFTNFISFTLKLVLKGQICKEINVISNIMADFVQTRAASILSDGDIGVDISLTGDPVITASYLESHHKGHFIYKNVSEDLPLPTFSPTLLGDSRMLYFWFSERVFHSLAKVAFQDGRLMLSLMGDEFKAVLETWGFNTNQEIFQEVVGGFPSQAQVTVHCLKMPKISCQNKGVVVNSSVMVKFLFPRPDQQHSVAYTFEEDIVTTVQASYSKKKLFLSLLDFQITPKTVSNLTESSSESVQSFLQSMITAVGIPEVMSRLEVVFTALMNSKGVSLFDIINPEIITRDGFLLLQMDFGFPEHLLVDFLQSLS
# testName: In vitro CETP activity inhibitory effect in whole plasma
# recordedConditions: plasma from healthy subjects containing [3H]CE-HDL3, incubated 4 hours at 37° C.; read-out: CETP activity inhibition in whole plasma IC50
pIC50: −log10 of the molar value.
observable: pIC50

Below are worked cases with known answers.
CC(C(=O)Nc1cc(Cl)c(Cl)cc1SC(=O)C(C)(C)C)C1CCCCC1 (stereo not shown) : 5.00
CCCCC[C@H]1CC[C@H](C(=O)Nc2cc(Cl)c(Cl)cc2SC(=O)C(C)(C)C)CC1 : 4.66

P = CCC(CC)CC1(C(=O)Nc2ccccc2SC(=O)COc2ccc(Cl)cc2)CCCCC1
Q = CC(C)CCC1(C(=O)Nc2ccccc2SC(=O)c2ccc(C(=O)Sc3ccccc3NC(=O)C3(CCC(C)C)CCCCC3)cc2)CCCCC1
Problem: Between the entries labelled P and Q , which has a larger pIC50 value on record? Respond using the label that marks the chosen record.
Result: P
(P: 5.40, Q: 4.64)

1 = COC(=O)CCC(=O)Sc1cc(Cl)c(Cl)cc1NC(=O)C1(CCC(C)C)CCCCC1
2 = CC(C)C(=O)Nc1ccccc1SSc1ccccc1NC(=O)C(C)C
3 = O=C(Nc1ccccc1SSc1ccccc1NC(=O)C1CCCCC1)C1CCCCC1
4 = CCC1(C(=O)Nc2ccccc2S)CCCCC1
Problem: Rank the 4 compounds: largest pIC50 first, smallest last. Give the order by naming the labels one after another as requested.
Result: 1, 4, 3, 2
(1: 5.22, 4: 4.92, 3: 4.66, 2: 4.39)

I = CC(C)CCC1(C(=O)Nc2ccccc2SC(=O)C2(N)CCCCC2)CCCCC1
II = Cc1ccc(NC(=O)C2(CCC(C)C)CCCCC2)c(S)c1
III = CC(C)CCC1(C(=O)Nc2ccc(Cl)cc2SC(=O)C(C)(C)C)CCCCC1
Problem: Place the items in sequence of falling pIC50. Response field: labels, in requested order.
Result: I, III, II
(I: 5.22, III: 4.77, II: 4.54)
